# System: CAKI-1 renal
# EXPERIMENT: NCI tumour cell line growth inhibition, 48 h
Quick reference for GI50 among some molecules

Some solved cases for reference:
>>> df
                                 cpd_smiles  target_system  reported_metric  measured
0          O=C1CCC2(C=C(Br)C(=O)C(Br)=C2)O1   CAKI-1 renal             GI50  0.611 µM
1       Cc1ccc2c(=O)c3cccc(CC(=O)O)c3oc2c1C   CAKI-1 renal             GI50  > 100 µM
2  COC(=O)/C(=C\c1c(C)[nH]c2ccccc12)S(=O)(=O)c1ccccc1   CAKI-1 renal             GI50   3.33 µM
3  Cc1cc(S(=O)(=O)Nc2nnc(-c3ccccc3)c(-c3ccccc3)n2)c(SCc2ccccc2)cc1Cl   CAKI-1 renal             GI50   25.5 µM

# input for lookup
Reported GI50 of "Cc1cc2c(F)c(Oc3ncnn4cc(OC[C@@H](C)OC(=O)[C@H](C)N)c(C)c34)ccc2[nH]1" : 7.21 µM
